EC50 values, listed per item
- SYSTEM_NAME: Cannabinoid receptor 1 (Homo sapiens)
- Sequence (P21554 whole entry): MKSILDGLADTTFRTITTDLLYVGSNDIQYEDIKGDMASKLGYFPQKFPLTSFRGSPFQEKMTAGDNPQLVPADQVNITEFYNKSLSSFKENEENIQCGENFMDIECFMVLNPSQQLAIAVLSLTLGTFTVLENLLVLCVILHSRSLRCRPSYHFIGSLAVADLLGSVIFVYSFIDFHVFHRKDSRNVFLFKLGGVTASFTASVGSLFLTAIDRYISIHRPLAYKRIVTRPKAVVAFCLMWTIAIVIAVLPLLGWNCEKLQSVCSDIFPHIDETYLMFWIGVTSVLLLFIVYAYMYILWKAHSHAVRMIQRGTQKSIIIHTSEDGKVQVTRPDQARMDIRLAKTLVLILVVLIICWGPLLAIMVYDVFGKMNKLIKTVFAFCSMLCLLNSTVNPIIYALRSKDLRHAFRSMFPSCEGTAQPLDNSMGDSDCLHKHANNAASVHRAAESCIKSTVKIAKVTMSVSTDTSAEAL
- PROCEDURE_SUMMARY: Antagonist activity at CB1 receptor (unknown origin)

O=C(O)c1cc(-c2ccc(C3CCNCC3)cc2)c2ccc(-c3ccc(C(F)(F)F)cc3)cc2c1 [PPTN]; > 10 µM

Attention now shifts to the item below.
Challenge: For the compound shown here, O=C(O)c1cc(-c2ccc(C3CCNCC3)cc2)cc(-c2cn(-c3ccc(C(F)(F)F)cc3)nn2)c1 , give the reported EC50.
Response given: > 10 µM

###

Listed here are compounds together with their documented half-life.
- PROCEDURE_SUMMARY: Half life in rat at 1 mg/kg, ip
- Format: ADME, organism-based
- APPLIED_CONDITIONS: in vivo

O=C(O)c1cc(-c2ccc(C34CCN(CC3)CC4)cc2)cc(-n2cc(-c3ccc(C(F)(F)F)cc3)nn2)c1; 4.6 h

API: the following record is the query input.
Challenge: Item under review: O=C(O)c1cc(-c2ccc(C34CCN(CC3)CC4)cc2)c2ccc(-c3ccc(C(F)(F)F)cc3)cc2c1 . Reported half-life?
Response given: 5.1 h

###

- SYSTEM_NAME: P2Y purinoceptor 14 (Mus musculus)
- Sequence (Q9ESG6 whole entry): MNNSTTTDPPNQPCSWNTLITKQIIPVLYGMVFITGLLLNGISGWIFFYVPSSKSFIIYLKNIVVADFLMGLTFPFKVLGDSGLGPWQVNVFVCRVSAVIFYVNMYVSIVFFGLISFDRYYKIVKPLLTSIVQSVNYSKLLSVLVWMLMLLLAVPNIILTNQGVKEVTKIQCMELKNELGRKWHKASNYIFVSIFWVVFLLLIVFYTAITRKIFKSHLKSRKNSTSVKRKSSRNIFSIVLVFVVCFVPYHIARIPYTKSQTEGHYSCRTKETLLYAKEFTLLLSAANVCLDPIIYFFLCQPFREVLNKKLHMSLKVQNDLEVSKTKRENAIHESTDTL
- PROCEDURE_SUMMARY: Inhibition of MRS4174 binding to mouse P2Y14R expressed in HEK293 cells pre-incubated for 30 mins before MRS4174 addition and further incubated for 30 mins by flow cytomtery based competitive fluorescence assay
The entries below are paired with their reported pIC50.
pIC50 is a log-scale quantity: -log10 of the concentration expressed in molar.

NC(=O)c1ccc(-c2cc(C(=O)O)cc(-n3cc(-c4ccc(C(F)(F)F)cc4)nn3)c2)cc1; 6.04
C[N+]12CCC(c3ccc(-c4cc(C(=O)O)cc5cc(-c6ccc(C(F)(F)F)cc6)ccc45)cc3)(CC1)CC2; 7.25
O=C(O)c1cc(-c2ccc(C34CCN(CC3)CC4)cc2)c2ccc(-c3ccc(C(F)(F)F)cc3)cc2c1; 7.67
O=C(O)c1cc(-c2ccc(C34CCN(CC3)CC4)cc2)cc(-n2cc(-c3ccc(C(F)(F)F)cc3)nn2)c1; 6.07

With those in mind, consider the next compound.
Challenge: Please tell me: pIC50 of O=C(O)c1cc(-c2ccc(C34CCNCC3C4)cc2)cc(-n2cc(-c3ccc(C(F)(F)F)cc3)nn2)c1 (stereo not given) , system P2Y purinoceptor 14 (Mus musculus)?
Response given: 5.94

###

- PROCEDURE_SUMMARY: Cmax in rat at 10 mg/kg, ip after 3 to 4 hrs
- Type: ADME, organism-based
- Design: dose 10 mg/kg, route intraperitoneal
- APPLIED_CONDITIONS: in vivo
OUTCOME_MEASURE: Cmax (ng/mL)
# value in ng/mL; strip the unit string

O=C(O)c1cc(-c2ccc(C34CCN(CC3)CC4)cc2)cc(-n2cc(-c3ccc(C(F)(F)F)cc3)nn2)c1; 900

Now let's try a different one.
Challenge: Can you share its Cmax? I mean this molecule: O=C(O)c1cc(-c2ccc(C34CCN(CC3)CC4)cc2)c2ccc(-c3ccc(C(F)(F)F)cc3)cc2c1
Response given: 900

###

- PROCEDURE_SUMMARY: Binding affinity to sigma 2 receptor (unknown origin)
- Parameters: species or system Homo sapiens
Measured Ki, listed per entry.
The figure you give is taken to be in nM; do not add the unit.

O=C(O)c1cc(-c2ccc(N3CCNCC3)cc2)cc(-n2cc(-c3ccc(C(F)(F)F)cc3)nn2)c1; 6700
NC(=O)c1ccc(-c2cc(C(=O)O)cc(-c3cn(-c4ccc(C(F)(F)F)cc4)nn3)c2)cc1; 2910

# ---- query compound ----
Challenge: Need Ki, item O=C(O)c1cc(-c2ccc(C34CCNCC3C4)cc2)cc(-n2cc(-c3ccc(C(F)(F)F)cc3)nn2)c1 (stereo not drawn)
Response given: 300
